Entry source: PubChem BioAssay (NCI)

# assayComment: NCI Yeast Anticancer Drug Screen. Data for the mlh1 rad18 strain (AID 175)
# assaySetup: S. cerevisiae mlh1 rad18 strain growth inhibition; at 50.0 µM; hits give high values
About 79,000 compounds went through this panel and 15% of them were active in at least one assay; those are over-represented in the sample as a whole.
Catalogue of growth inhibition readings, one per entry.

compound	growth inhibition (%)
CC(=O)Oc1ccc(-c2ccccc2)cc1	26.3
COc1ccc(C2ON(c3ccccc3)CC=C2C)cc1 (stereo unspecified)	13.1
COC(=O)C([O][Ge]([CH3])([CH3])[CH3])c1ccccc1 (stereo unspecified)	-12.7
CC(NC(=O)C(N)CCC(=O)O)C(=O)NCP(=O)(O)O (stereo unspecified)	8
c1ccc2c3c(ccc2c1)OCCOCCOc1ccc2ccccc2c1-3	86
CCO/C=C1/N=C(Cc2ccccc2)OC1=O	13
CC1=NN(C(=O)CC(=O)Nc2cccc(C)c2)C(=O)C1N=Nc1ccc(C(=O)O)cc1 (stereo unspecified)	25.9
CC1(C)C=C(N2CCCCC2)C(=O)c2ccccc21	5.15
Cc1c(C)n2c(=O)n(-c3ccccc3)c(=O)n2c1=O	-1.85
CCNc1ccc(S(=O)(=O)O)cc1C(=O)O	-4.6
Cc1cc(Cl)ccc1NC(=O)/C(=N\NC(C)(C)C)C(C#N)c1nc(-c2ccc([N+](=O)[O-])cc2)cs1 (stereo unspecified)	-10.8

###

Catalogue of growth inhibition readings, one per entry.
# assayComment: NCI Yeast Anticancer Drug Screen. Data for the bub3 strain (AID 167)
# assaySetup: S. cerevisiae bub3 mutant strain, at 50.0 µM, hits give high values
Compounds without any hit were thinned out: in the full panel of roughly 79,000, 15% have a hit.

smilesText	growth inhibition / %
N[C@@H](CSSc1ccccc1C(=O)O)C(=O)O	0.8
O=C(/C=C/c1ccccc1Cl)c1ccccc1[N+](=O)[O-]	96.5
Cc1nc2ccccc2c(=O)n1NC(=S)Nc1ccccc1	-32.4
Cc1n(CC(=O)c2ccccc2)nc2sc(N)n[n+]12	-14.8
Cc1ccccc1N=Cc1ccccc1O.[Co]	0.3
NC(=O)C(CC(C(N)=O)C(N)=O)C(N)=O	7.7
O=C1CCSC(=S)N1c1ccc(F)cc1F	4.7

###

# assayComment: NCI Yeast Anticancer Drug Screen. Data for the bub3 strain (AID 167)
# assaySetup: S. cerevisiae bub3 mutant strain, at 50.0 µM, hits give high values
Compounds without any hit were thinned out: in the full panel of roughly 79,000, 15% have a hit.

compound	resultUnit	growth inhibition
Cc1ccc2nc(C)cn2c1	%	10.7
Clc1ccc(-c2ccncc2)cc1	%	13.1
CC1(C)COC(c2ccc(CC(Cc3ccc(C4(C(C)(C)C)OCC(C)(C)CO4)cc3)C(=O)O)cc2)(C(C)(C)C)OC1	%	3.8
Cn1c(=O)c2c(n(C)c1=O)n(C)c(=O)n2C	%	1.85
CC(C)(CCc1nc2ccccc2[nH]1)C(=O)O	%	1.05
Cc1cc(Cl)ccc1NC(=O)/C(=N\NC(C)(C)C)C(C#N)c1nc(-c2ccc([N+](=O)[O-])cc2)cs1 (stereo unspecified)	%	4.25
O=C(O)CCNc1cccs1	%	-4.85
O=C1/C(=C/c2ccccc2)CCCC/C1=C\c1ccccc1	%	9.75
CCOC(=O)c1nc2ccccc2nc1NCc1ccc(OC)c(OC)c1	%	-0.05
CCCCCCCCCCCCCCCCCCN(C)CC(COC)OP(=O)([O-])OCC[N+](C)(C)C (stereo unspecified)	%	0.25
CN(C)c1ccc(/C=c2\sc3nc4ccccc4n3c2=O)cc1	%	-16.5
